Value source: patent US8541407B2

Tested on: AN3-CA
TEST: MTS Assay, cell proliferation analysis (AN3-CA)
Assay type: cell-based
CONDITIONS: Homo sapiens; AN3-CA cells; 72 hours; 10 Percent FBS
Param label: returns fulfilled when IC50 < 20 µM, returns not fulfilled otherwise, including exact equality.

**Query** Report whether reported IC50 is lower than 20 µM (strictly) for O=C(NCc1ccc(-c2nnc3n2-c2cccnc2Nc2ccccc2-3)cc1)Nc1ccccc1F
**Result** not fulfilled

**Query** Report whether reported IC50 is lower than 20 µM (strictly) for c1ccc(-n2cc(COCc3ccc(-c4nnc5n4-c4cccnc4Nc4ccccc4-5)cc3)nn2)cc1
**Result** fulfilled

**Query** Report whether reported IC50 is lower than 20 µM (strictly) for Clc1ccc2nc(CCNCc3ccc(-c4nnc5n4-c4cccnc4Nc4ccccc4-5)cc3)[nH]c2c1
**Result** fulfilled

**Query** Report whether reported IC50 is lower than 20 µM (strictly) for CN(C)c1ccc(C(=O)NCc2ccc(-c3nnc4n3-c3cccnc3Nc3ccccc3-4)cc2)cc1
**Result** fulfilled

**Query** Report whether reported IC50 is lower than 20 µM (strictly) for O=C(Nc1ccc(-c2nnc3n2-c2cccnc2Nc2ccccc2-3)cc1)c1ccc(F)cc1
**Result** not fulfilled

**Query** Report whether reported IC50 is lower than 20 µM (strictly) for Cc1ccc(C(=O)Nc2ccc(-c3nnc4n3-c3cccnc3Nc3ccccc3-4)cc2)cc1
**Result** fulfilled

**Query** Report whether reported IC50 is lower than 20 µM (strictly) for O=C(NCCc1ccc(-c2nnc3n2-c2cccnc2Nc2ccccc2-3)cc1)Nc1ccccc1
**Result** fulfilled

**Query** Report whether reported IC50 is lower than 20 µM (strictly) for O=C(NC1(c2ccc(-c3nnc4n3-c3cccnc3Nc3ccccc3-4)cc2)CCC1)c1ccccc1
**Result** not fulfilled

**Query** Report whether reported IC50 is lower than 20 µM (strictly) for Cc1ccc(S(=O)(=O)NC2(c3ccc(-c4nnc5n4-c4cccnc4Nc4ccccc4-5)cc3)CCC2)cc1
**Result** fulfilled

**Query** Report whether reported IC50 is lower than 20 µM (strictly) for O=S(=O)(NCc1ccc(-c2nnc3n2-c2cccnc2Nc2ccccc2-3)cc1)c1ccc(F)cc1
**Result** not fulfilled

**Query** Report whether reported IC50 is lower than 20 µM (strictly) for Fc1ccc2c(CCNCc3ccc(-c4nnc5n4-c4cccnc4Nc4ccccc4-5)cc3)c[nH]c2c1
**Result** fulfilled

**Query** Report whether reported IC50 is lower than 20 µM (strictly) for NC1(c2ccc(-c3nnc4n3-c3cccnc3Nc3ccc(Br)cc3-4)cc2)CCC1
**Result** not fulfilled

**Query** Report whether reported IC50 is lower than 20 µM (strictly) for COc1cccc(S(=O)(=O)NCc2ccc(-c3nnc4n3-c3cccnc3Nc3ccccc3-4)cc2)c1
**Result** not fulfilled

**Query** Report whether reported IC50 is lower than 20 µM (strictly) for NC1(c2ccc(-c3nnc4n3-c3cccnc3Nc3ccccc3-4)cc2)CCC1
**Result** not fulfilled

**Query** Report whether reported IC50 is lower than 20 µM (strictly) for O=S(=O)(NCc1ccc(-c2nnc3n2-c2cccnc2Nc2ccccc2-3)cc1)c1cccc(Cl)c1
**Result** not fulfilled

**Query** Report whether reported IC50 is lower than 20 µM (strictly) for O=C(Nc1cccc(C(F)(F)F)c1)NC1CCN(Cc2ccc(-c3nnc4n3-c3cccnc3Nc3ccccc3-4)cc2)CC1
**Result** fulfilled

**Query** Report whether reported IC50 is lower than 20 µM (strictly) for O=C(NCCc1cccs1)NC1CCN(Cc2ccc(-c3nnc4n3-c3cccnc3Nc3ccccc3-4)cc2)CC1
**Result** not fulfilled

**Query** Report whether reported IC50 is lower than 20 µM (strictly) for Cc1ccc(S(=O)(=O)NCc2ccc(-c3nnc4n3-c3cccnc3Nc3ccccc3-4)cc2)cc1
**Result** not fulfilled

**Query** Report whether reported IC50 is lower than 20 µM (strictly) for c1ccc2c(c1)Nc1ncccc1-n1c(-c3ccc(CN4CCC(c5c[nH]c6ccccc56)CC4)cc3)nnc1-2
**Result** fulfilled

**Query** Report whether reported IC50 is lower than 20 µM (strictly) for O=C(Nc1ccc(-c2nnc3n2-c2cccnc2Nc2ccccc2-3)cc1)c1ccccc1
**Result** not fulfilled

**Query** Report whether reported IC50 is lower than 20 µM (strictly) for Cc1ccc(NC(=O)NC2CCN(Cc3ccc(-c4nnc5n4-c4cccnc4Nc4ccccc4-5)cc3)CC2)cc1
**Result** not fulfilled
